- System: ACHN
- test_description: NCI tumour cell line growth inhibition, 48 h
Active and inactive are the calls of the source. Cut-off read from the data, not from the text of the source: active = GI50 up to about 1.1 µM and inactive = higher.
observed_property: GI50

• C#CC(O)(c1nc2ccccc2s1)c1nc2ccccc2s1 = 23 µM (inactive)

Please look at the following compound next.
Task item: Which measured GI50 value corresponds to CCCCn1cc[n+](-c2nc3ccccc3n2C)c1 ?
Reply: > 100 µM (inactive)

* * *

Below, each entry is listed alongside its reported GI50.
- Test system: ACHN
- test_description: NCI tumour cell line growth inhibition, 48 h
Active and inactive are the calls of the source. Rule as the data show it: active = GI50 up to about 1.1 µM and inactive = higher.

Task item: # get_value(readout='GI50', item= N#Cc1c(N2CCN(c3ccc([N+](=O)[O-])cc3)CC2)[n+]([O-])c2ccccc2[n+]1[O-] )
Reply: > 100 µM (inactive)

Task item: GI50 for COc1ccc(C2=NN(C(C)=O)c3nc4ccccc4nc3O2)cc1 ?
Reply: 24.4 µM (inactive)

Task item: Name the reported GI50 value associated with the molecule Nc1nc(SCC(=O)c2ccccc2)c2[nH]cnc2n1
Reply: > 100 µM (inactive)

* * *

- Tested on: KM-20L2
- test_description: NCI tumour cell line growth inhibition, 48 h
Active and inactive are the calls of the source. Rule as the data show it: active = GI50 up to about 1.1 µM and inactive = higher.
API: response.call in YES for active, NO for inactive

• CCOC1=C2N=C(Cc3ccccc3F)N=C2C(=O)c2ccccc21 = NO
• N#CC(NNC(=O)c1ccccc1O)c1ccccc1 (stereo unspecified) = NO
• COC1=C(OC)C(=O)c2cc(SC)c(=O)c(SC)cc2C1=O = NO
• Cc1ccc(NC(=O)NC(=O)c2ccc([N+](=O)[O-])cc2[N+](=O)[O-])cc1Oc1ncc(Cl)cn1 = YES
• COc1cc(CC(=O)O)c([N+](=O)[O-])cc1OC = NO

Task item: Hi team, can someone confirm the assay call for O=C(O)C12C3CCCC1C2CC3 (stereo unspecified) ?
Reply: NO

* * *

- Tested on: LOX IMVI
- test_description: NCI tumour cell line growth inhibition, 48 h
Active and inactive are the calls of the source. Rule as the data show it: active = GI50 up to about 1.1 µM and inactive = higher.
Catalogue of GI50 values

The cases that follow already have their GI50 on record.
• COC(=O)C1=C(O)C(C(=O)OC)[C@]2(O)[C@H](C(=O)OC)[C@H]1C[C@@H](c1ccc(OC)cc1)[C@H]2C(=O)OC (stereo not given in full) = 24.4 µM (inactive)
• Cc1ccc(/C=N/Nc2cnccn2)s1 = > 100 µM (inactive)
• COC(=O)C1=C(C(=O)OC)C23CC4CCC2(C(=O)C1O3)C4(C)C (stereo not given) = 84.5 µM (inactive)

Task item: I'd like to know its GI50. The molecule in question is Cc1ccc(N(C)S(=O)(=O)c2ccccc2[N+](=O)[O-])cc1
Reply: 32.4 µM (inactive)

Task item: Return reported GI50; argument: N#Cc1c(N2CCN(c3ccc([N+](=O)[O-])cc3)CC2)[n+]([O-])c2ccccc2[n+]1[O-]
Reply: 32.4 µM (inactive)

Task item: Look up GI50: NC(CCCNCc1ccccc1)C(=O)O (stereo not given)
Reply: > 100 µM (inactive)

Task item: Please report the recorded GI50 for CSCSCC(CO)NC(=O)/C(C)=C\c1c(C)[nH]c(=O)[nH]c1=O (stereo not given) .
Reply: > 250 µM (inactive)

Task item: # lookup: GI50 of COc1cc2c(cc1OC)C1Cc3cc(OC)c(OC)cc3C(C2)O1
Reply: > 100 µM (inactive)

Task item: Please give the measured GI50 for this molecule: O=C1C2=C(C(c3ccccc3)=C1c1ccccc1)c1ccccc1C1(c3ccccc3)C2=C(O)C(c2ccccc2)=C1c1ccccc1 (stereo not given)
Reply: > 100 µM (inactive)

Task item: Need GI50, item COc1cc2c(cc1OC)[C@@H]1[C@H](C#N)C(=O)C(C)(C)N1CC2
Reply: > 100 µM (inactive)

* * *

- System: HL-60
- test_description: NCI tumour cell line growth inhibition, 48 h
Activity calls are given as the source filed them. Cut-off read from the data, not from the text of the source: active = GI50 up to about 1.1 µM and inactive = higher.
Recorded GI50 values for a group of compounds are listed next.

• COc1ccc(C=C(c2ccc(OCc3ccccc3)cc2)c2ccc(OCc3ccccc3)cc2)cc1 = > 100 µM (inactive)
• COc1cc2c(cc1O)C1CC(CC3CCCCN31)OC(=O)/C=C\c1ccc(O)c-2c1 (stereo not given) = 27.8 µM (inactive)
• O=C(O)CCCCn1ccc(=O)[nH]c1=O = > 100 µM (inactive)
• O=C(Nc1nnc(-c2ccc(Cl)cc2)o1)C(SC(=S)N1CCOCC1)c1ccccc1 (stereo not given) = 5.69 µM (inactive)

Now for a further compound.
Task item: # GI50 lookup, item COc1cc(C2SCC(=O)N2c2ccc(Cl)cc2)cc(OC)c1OC (stereo not given)
Reply: 2.46 µM (inactive)

* * *

Each record here notes measured GI50.
- Tested on: A498
- test_description: NCI tumour cell line growth inhibition, 48 h
Activity calls are given as the source filed them. Rule as the data show it: active = GI50 up to about 1.1 µM and inactive = higher. Starred links: 1 amine or outer side, 2 acyl side, 3 side chain; linkers in the order of their positions; H or OH if unused. Non-standard residues stand in square brackets, D forms with d. Residues, ends and D or L forms follow the SMILES beside them. ξ: configuration not given here. Ile(3ξ) = CCC(C)[C@H](N)C(=O)O; X35 = C=CCC(O[*:1])C(=O)[*:2]; NMeV = CN[C@H](C(=O)O)C(C)C; NMeA = CN[C@@H](C)C(=O)O; βAla = NCCC(=O)O

Sample records with GI50:
- C[C@]12CC[C@H]3[C@@H](CC[C@]4(O)C[C@@H](O)CC[C@]34CO)[C@@]1(O)CC[C@@H]2C1=CC(=O)OC1: 1.61 µM (inactive)
- CC(O)C1OC(n2ccc(=O)[nH]c2=O)CC1n1cncn1 (centres undefined): > 100 µM (inactive)
- O=C(Nc1nnc(-c2ccc(Cl)cc2)o1)C(SC(=S)N1CCOCC1)c1ccccc1 (centres undefined): 20.4 µM (inactive)
- C/C(=N\Nc1nc2ccccc2s1)c1cccc[n+]1[O-]: > 100 µM (inactive)
- CCOc1cc(NC(C)=O)ccc1C(=O)NN1C(=O)C(Oc2ccccc2)C1c1ccccc1 (centres undefined): 45.4 µM (inactive)
- CCOC(=O)CCNC(=O)c1cc(C)cc2c1Oc1c(cc(C)cc1C(=O)NCCC(=O)OCC)S2: 27.2 µM (inactive)

Task item: Given the compound CN(C)c1nc(Oc2nc(N(C)C)nc(N(C)C)n2)nc(N(C)C)n1 , what is its reported GI50?
Reply: > 100 µM (inactive)

Task item: Please give the measured GI50 for this compound: Cc1ccc(S(=O)(=O)N/N=C/c2oc(-c3cccc([N+](=O)[O-])c3)c(-c3cccc([N+](=O)[O-])c3)c2[N+](=O)[O-])cc1
Reply: > 100 µM (inactive)

Task item: Quick one: GI50 of CCCC#CC(O)(C(=O)OC1CCN(C)CC1)C1CCCCC1 (centres undefined) ?
Reply: 94.6 µM (inactive)

Task item: Entry O=C(/C=C\c1cccc2ccccc12)c1cccc2ccccc12 has what GI50?
Reply: 17.2 µM (inactive)

Task item: Sample C=CCC1OC(=O)CCNC(=O)[C@H](C)N(C)C(=O)[C@H](C(C)C)N(C)C(=O)[C@H](C(C)CC)NC(=O)[C@@H]2CCCN2C1=O (some centres undefined) (cyclo([Ile(3ξ)][NMeV][NMeA][βAla][X35]P)) — what was its GI50?
Reply: > 71.6 µM (inactive)

Task item: // lookup GI50 for C#C[C@@H](OC(=O)c1ccc([N+](=O)[O-])cc1)[C@@H]1C[C@H]2O[C@@H]([C@H](C/C=C/CC)OC(=O)c3ccc([N+](=O)[O-])cc3)C[C@H]2O1
Reply: > 100 µM (inactive)

Task item: Name the reported GI50 value associated with the compound CN(C)c1ccc(/C=C2\N=C(c3ccccc3)N(/N=C3\C(=O)Nc4ccccc43)C2=O)cc1
Reply: 73.6 µM (inactive)

Task item: Give its GI50 value. Item: CSCSCC(CO)NC(=O)/C(C)=C\c1c(C)[nH]c(=O)[nH]c1=O (centres undefined)
Reply: > 250 µM (inactive)

* * *

- Test system: COLO 205
- test_description: NCI tumour cell line growth inhibition, 48 h
The source made the active and inactive calls. No stated cut-off is given here; in the data, active = GI50 up to about 1.1 µM and inactive = higher.
Measured GI50 of individual entries

Before answering, review these 2 worked examples.
- Cc1ccc(N(C)S(=O)(=O)c2ccccc2[N+](=O)[O-])cc1: 57.3 µM (inactive)
- CC(=O)OCC1OC(OC2CC3C(C)(C)C(O)CC[C@]3(C)C3CCC45CC4(CC[C@H]5C(C)CC(O)C4OC4(C)C)[C@]23C)C(O)C(O)C1O (stereo partly drawn): 7.24 µM (inactive)

--- query ---
Task item: # returns recorded GI50 (system: COLO 205) for CC(C)(C)CC(C)(C)c1cc2c(O)c(c1)Cc1cc(C(C)(C)CC(C)(C)C)cc(c1O)Cc1cc(C(C)(C)CC(C)(C)C)cc(c1O)Cc1cc(C(C)(C)CC(C)(C)C)cc(c1O)Cc1cc(C(C)(C)CC(C)(C)C)cc(c1O)Cc1cc(C(C)(C)CC(C)(C)C)cc(c1O)C2
Reply: > 100 µM (inactive)

Data credit: ChEMBL document CHEMBL1201862
